The measurements presented in this section are drawn from paper PMC4001326.

- assay_system: pol V Mut WT (UmuD'2C-RecA-ATP) (Escherichia coli (pol V from strain …, UniProt P0AG11;P04152;P0A7G6 25-139;1-422;2-353))
- experiment_summary: fluorescence anisotropy; 500 uM ATPgS; 20 mM Tris-HCl pH 7.5, 25 mM Na glutamate, 8 mM MgCl2, 8 mM DTT, 4% glycerol, 0.1 mM EDTA, 37 C; 50 nM labeled hairpin; 500 uM ATP or ATPgS (titrations to 750 uM)
- test_context: protein: recombinant, tags: His (pol V), chain copies: 2;1;1, label: fluorescein (internal dT), 18 bp stem, 5' overhang 12 nt
outcome_measure: Kd (nM)
Give the value in nM but do not write nM after it.

Query: What does the data say about its Kd? Entry: Fluorescein 12 nt oh HP (structured_DNA, fluorescein-dT replacing T44 (from parent S5)) DNA: CGAAACAGGAAAGCAGTTAGCGCATTCAGCTCATACTGCTGAATGCGCTAACTGC
Response: 876
